test system: T47D; assay: NCI tumour cell line growth inhibition, 48 h
Activity calls are given as the source filed them. Cut-off read from the data, not from the text of the source: active = GI50 up to about 1.1 µM and inactive = higher.
GI50 listing for selected compounds.

Some compounds with recorded GI50:
>>> data_value("CCN(CC)C1Oc2cc3c(cc2C(c2ccc(OC)cc2)C1C)OCO3 (centres undefined)")
"26.9 µM (inactive)"
>>> data_value("N#CC1=C(N)OC2=C(CCCc3ccc([N+](=O)[O-])cc32)C1c1ccc(Cl)cc1 (centres undefined)")
"3.78 µM (inactive)"
>>> data_value("C=C(CBr)CCCOCc1ccccc1")
"37.8 µM (inactive)"

Please find the next compound below.
Enquiry: Which measured GI50 value corresponds to CCOC(=O)NN(C(=O)OCC)c1c(C)cc(C)cc1C ?
Return: > 100 µM (inactive)

---

tested on: EKVX; experiment: NCI tumour cell line growth inhibition, 48 h
Activity calls are given as the source filed them. No stated cut-off is given here; in the data, active = GI50 up to about 1.1 µM and inactive = higher.
Your answer must be one of the following: active, inactive

For orientation, consider the following solved cases.
>>> label_class("Cc1ccc(-c2nc(N/N=C/c3ccc(O)cc3)c3ccccc3n2)cc1")
"inactive"
>>> label_class("COc1c(OC/C=C(\\C)CCC=C(C)C)ccc2ccc(=O)oc12 [COLLININ]")
"inactive"
>>> label_class("COc1cc(C2c3cc4c(cc3[C@@H](Nc3ccc(F)cc3)C3COC[C@H]23)OCO4)cc(OC)c1O (stereo partly specified)")
"inactive"
>>> label_class("CC(=O)OCCn1cnc2c(NCC=C(C)C)ncnc21")
"inactive"
>>> label_class("COC(=O)C1=C(C)NC(=S)NC1c1ccc(N(CCCl)CCCl)cc1Cl (stereo unspecified)")
"inactive"

Enquiry: Outcome logged for O=C(CC(O)(C(F)(F)F)C(F)(F)F)C(c1ccccc1)C(O)(C(F)(F)F)C(F)(F)F (stereo unspecified) in this assay:
Return: inactive

Enquiry: Try this molecule too: COC(=O)C1=CC2OC1(C)CCC2=O (stereo unspecified)
Return: inactive

Enquiry: Try this molecule too: CC/C=C\C/C=C\C/C=C\CCCCCCCC(=O)OCC
Return: inactive

---

tested on: SF-268; assay: NCI tumour cell line growth inhibition, 48 h
Active and inactive are the calls of the source. Cut-off read from the data, not from the text of the source: active = GI50 up to about 1.1 µM and inactive = higher.
Assay endpoint: GI50

Some compounds with recorded GI50:
>>> data_value("Cc1nc(N)sc1C(=O)Nc1nc[nH]n1")
"> 100 µM (inactive)"
>>> data_value("CC(C)(C)c1ccc(O)c(CN(Cc2c(O)ccc3ccccc23)C2CCCCC2)c1")
"16.1 µM (inactive)"

Enquiry: Form entry - test system: SF-268; read-out: GI50; compound: N=C(N)N/N=C/c1c(-c2ccc(Cl)c([N+](=O)[O-])c2)nc2sc(Cl)cn12
Return: 2.68 µM (inactive)

Enquiry: Try this compound too: COc1cc2c(cc1OC)c1c(OC)c(OC)cc3c1c1c2sc(=S)n1CC3
Return: 28.7 µM (inactive)

Enquiry: Try this compound too: O=C1NC(=S)NC(=O)C1=Cc1ccc(-c2ccccc2)cc1
Return: > 100 µM (inactive)

Enquiry: Try this compound too: CC1CCC[P+](Cc2ccccc2)(c2ccccc2)CC1 (stereo unspecified)
Return: 89.1 µM (inactive)

---

system: NCI-H23; test: NCI tumour cell line growth inhibition, 48 h
The source made the active and inactive calls. Cut-off read from the data, not from the text of the source: active = GI50 up to about 1.1 µM and inactive = higher.
Assay endpoint: GI50

>>> data_value("C[P+](C)(CC(F)(F)F)c1ccccc1")
"> 100 µM (inactive)"
>>> data_value("COc1cc2c(cc1OC)c1c(OC)c(OC)cc3c1c1c2sc(=S)n1CC3")
"44.4 µM (inactive)"
>>> data_value("NS(=O)(=O)c1ccc(NNc2c3ccccc3nc3c(C(=O)Nc4ccc(S(N)(=O)=O)cc4)cccc23)cc1")
"28.8 µM (inactive)"
>>> data_value("CN(C)c1ccc(C=C2C(=O)OC(C)(C)OC2=O)cc1Br")
"> 100 µM (inactive)"
>>> data_value("CCOc1ccc(C(c2c(O)c3ccccc3oc2=O)c2c(O)c3ccccc3oc2=O)cc1")
"44.4 µM (inactive)"
>>> data_value("COC(=O)/C(=N\\NC(=O)c1ccccc1O)C(C#N)c1ccccc1 (stereo not given)")
"20.1 µM (inactive)"
>>> data_value("O=C(CSc1nnc(Cc2ccccc2)o1)Nc1ccc(Cl)cc1")
"52.2 µM (inactive)"
>>> data_value("CC(=O)O[C@H]1C(=O)[C@@]2(C)[C@H]([C@H](OC(=O)c3ccccc3)[C@]3(O)C[C@H](OC(=O)[C@H](O)[C@@H](NC(=O)c4cccc(N=[N+]=[N-])c4)c4ccccc4)C(C)=C1C3(C)C)[C@]1(OC(C)=O)CO[C@@H]1C[C@@H]2O")
"0.00641 µM (active)"
>>> data_value("CCCN(CCCC(NC(C)=O)C(=O)NCc1ccccc1)C(=O)N(C)N=O (stereo not given)")
"> 100 µM (inactive)"

Please find the next molecule below.
Enquiry: Form entry - test system: NCI-H23; read-out: GI50; molecule: CN1CCN(CN2C(=O)C3C4C=CC(C3C2=O)C2C3C(=O)N(CN5CCN(C)CC5)C(=O)C3C42)CC1 (stereo not given)
Return: 21.2 µM (inactive)

---

GI50 listing for selected compounds.
test system: SK-MEL-5; assay: NCI tumour cell line growth inhibition, 48 h
The source made the active and inactive calls. No stated cut-off is given here; in the data, active = GI50 up to about 1.1 µM and inactive = higher.

Some compounds with recorded GI50:
>>> data_value("C=C(CBr)CCCOCc1ccccc1")
"20.5 µM (inactive)"
>>> data_value("COc1ccc(/C=C/c2cc(OC)c(OC)c(OC)c2)cc1")
"3.68 µM (inactive)"
>>> data_value("COc1ccc(-c2oc3ccccc3c(=O)c2O)cc1OC [3-HYDROXY-3',4'-DIMETHOXYFLAVONE]")
"> 100 µM (inactive)"

Enquiry: Which measured GI50 value corresponds to CN(N=O)C(=O)N(N)CCCCC(NC(=O)OCc1ccccc1)C(=O)OCc1ccccc1 (centres undefined) ?
Return: 44.7 µM (inactive)

Enquiry: Try this compound too: COc1c(OC/C=C(\C)CCC=C(C)C)ccc2ccc(=O)oc12
Return: 48.1 µM (inactive)

Enquiry: Try this compound too: COc1ccc(C2C(Cl)C(=O)N2NC(=O)c2ccc(NC(C)=O)cc2)cc1OC (centres undefined)
Return: > 100 µM (inactive)

Enquiry: Try this compound too: O=C(Nc1ccccc1)c1cc(S(=O)(=O)NC2=Nc3ccc(Cl)cc3C(c3ccccc3)N2)c(SSc2cc(Cl)c(C(=O)Nc3ccccc3)cc2S(=O)(=O)NC2=Nc3ccc(Cl)cc3C(c3ccccc3)N2)cc1Cl (centres undefined)
Return: > 100 µM (inactive)

---

tested on: U-251; assay: NCI tumour cell line growth inhibition, 48 h
The source made the active and inactive calls. Rule as the data show it: active = GI50 up to about 1.1 µM and inactive = higher.
Your answer must be one of the following: YES for active, NO for inactive

For orientation, consider the following solved cases.
>>> label_class("COP(=O)(CC(=O)C1OC(C)(C)OC1C(O)COCc1ccccc1)OC (stereo not drawn)")
"NO"
>>> label_class("Cc1nc2ccccc2c(=O)n1NC(=S)Nc1ccc(Cl)cc1[N+](=O)[O-]")
"NO"
>>> label_class("CC(C)(C)CNCCCNc1ccc(Cl)cc1")
"NO"
>>> label_class("COc1ccc(-c2oc3ccccc3c(=O)c2O)cc1OC [3-HYDROXY-3',4'-DIMETHOXYFLAVONE]")
"NO"
>>> label_class("COc1ccc(C)cc1N1C(=O)C2ON(Cc3ccc(CC(N)=O)cc3)C(c3c4ccccc4c(Cl)c4ccccc34)C2C1=O (stereo not drawn)")
"NO"

Now, please, on to the next molecule.
Enquiry: Outcome logged for COc1cc(C2c3cc4c(cc3[C@@H](Nc3ccc(F)cc3)C3COC[C@H]23)OCO4)cc(OC)c1O (stereo partly drawn) in this assay:
Return: YES

---

test system: U-251; test: NCI tumour cell line growth inhibition, 48 h
The source made the active and inactive calls. Rule as the data show it: active = GI50 up to about 1.1 µM and inactive = higher.
Assay endpoint: GI50

>>> data_value("CCOC(=O)C1(N)CCc2[nH][nH]c(=O)c2C1 (stereo not drawn)")
"> 100 µM (inactive)"
>>> data_value("COC(=O)C(CCCCNC(=O)CNC(=O)OCc1ccccc1)NC(=O)C(CCCCNC(=O)CNC(=O)OCc1ccccc1)NC(=O)OCc1ccccc1 (stereo not drawn)")
"54 µM (inactive)"

Enquiry: Form entry - test system: U-251; read-out: GI50; compound: COc1c(Br)cc2ccccc2c1-c1c(OC)c(Br)cc2ccccc12
Return: > 100 µM (inactive)

---

GI50 listing for selected molecules.
test system: A498; experiment: NCI tumour cell line growth inhibition, 48 h
Active and inactive are the calls of the source. Rule as the data show it: active = GI50 up to about 1.1 µM and inactive = higher.

>>> data_value("O=C(/C=C/c1ccc(O)c(O)c1)OCCOC(=O)/C=C/c1ccc(O)c(O)c1")
"39.5 µM (inactive)"

Please find the next molecule below.
Enquiry: Form entry - test system: A498; read-out: GI50; molecule: C=C(CBr)CCCOCc1ccccc1
Return: 35.2 µM (inactive)

---

test system: SNB-75; test: NCI tumour cell line growth inhibition, 48 h
Active and inactive are the calls of the source. No stated cut-off is given here; in the data, active = GI50 up to about 1.1 µM and inactive = higher.
Your answer must be one of the following: YES = active, NO = inactive

For orientation, consider the following solved cases.
>>> label_class("Oc1cc(-c2cccc(F)c2)nc2cc3c(cc12)OCO3")
"YES"
>>> label_class("COC(=O)C1CCC(=O)N1C(c1ccc(OC)cc1)c1ccc2c(c1)OCO2 (stereo not given)")
"NO"
>>> label_class("COc1ccc(C)cc1N1C(=O)C2ON(Cc3ccc(CC(N)=O)cc3)C(c3c4ccccc4c(Cl)c4ccccc34)C2C1=O (stereo not given)")
"NO"

Enquiry: Outcome logged for N#CC1=C(N)OC2=C(CCCc3ccc([N+](=O)[O-])cc32)C1c1ccc(Cl)cc1 (stereo not given) in this assay:
Return: NO

Enquiry: Try this compound too: N#Cc1c(C#N)c(-c2ccco2)n(/N=C/c2ccco2)c1N
Return: NO

Enquiry: Try this compound too: O=C(O[C@H]1CCN2C[C@H]3C[C@H](CN4C(=O)CCC[C@H]34)[C@@H]2C1)c1ccc(O)cc1
Return: NO

Enquiry: Try this compound too: O=C(O/C(=C(/N=N/c1ccccc1)c1ccccc1)c1ccccc1)c1ccccc1
Return: NO

Enquiry: Try this compound too: CCOC(=O)/C1=C(\C)N(c2ccc(C)cc2)C(=O)c2ccccc2C(=O)c2c(O)ccc(O)c21
Return: YES

Enquiry: Try this compound too: CC(=O)C1=C(C)N(c2ccc(C)cc2)C2(O)C3=C(C(=O)c4ccccc4C3=O)C(O)=CC12Cl (stereo not given)
Return: NO
